Test system: NCI-H196 complex spheroid viability
Protocol summary: Anticancer human tumor NCI-H196 cell line growth inhibition [LSD1];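 further: spheroids exposed to agents for 7 days before readout; 100% = DMSO vehicle control viability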
Reported conditions: second compound 3.16 µM; first compound 0.001 µM; active compounds read low
Excerpt: Multicellular complex tumor spheroid response to LSD1 Inhibitor Iadademstat in combination with a variety of drugs and investigational agents in selected tumor cell lines The current study was undertaken to assess response to LSD1 inhibitors in combination with standard-of-care drugs and investigational agents in solid tumor complex spheroid models as well as in the K-562 leukemia. […] Compounds. […] If the clinical Cmax for an agent had not been determined, the highest concentration tested was 10 microM. […]
In this section, each of the molecules is paired with its reported viability, T/C.
Respond numerically; units are % and should not be typed.

Previously resolved entries follow.
>>> print(df.to_string())
                                   molecule                                  tgt  measurement_type  observed_measurement
0  CC(C)CC(NC(=O)C(Cc1ccccc1)NC(=O)c1cnccn1)B(O)O (stereo not drawn) + NC1CCC(NC2CC2c2ccccc2)CC1  NCI-H196 complex spheroid viability    viability, T/C                  5.93
1  Cn1ncnc1C1c2n[nH]c(=O)c3cc(F)cc(c23)NC1c1ccc(F)cc1 (stereo not drawn) + NC1CCC(NC2CC2c2ccccc2)CC1  NCI-H196 complex spheroid viability    viability, T/C                  99.8
2  Cn1ncnc1C1c2n[nH]c(=O)c3cc(F)cc(c23)NC1c1ccc(F)cc1 (stereo not drawn) + NC1CC1c1ccc(-c2cccc(O)c2)cc1  NCI-H196 complex spheroid viability    viability, T/C                  99.1
3  CC[C@@]1(O)C(=O)OCc2c1cc1n(c2=O)Cc2cc3c(CN(C)C)c(O)ccc3nc2-1 + NC1CC1c1ccc(-c2cccc(O)c2)cc1  NCI-H196 complex spheroid viability    viability, T/C                  95.3
4  CC(C)CC(NC(=O)CNC(=O)c1cc(Cl)ccc1Cl)B1OC(=O)CC(CC(=O)O)(C(=O)O)O1 (stereo not drawn) + NC1CCC(NC2CC2c2ccccc2)CC1  NCI-H196 complex spheroid viability    viability, T/C                   107

viability, T/C reading for CC[C@@]1(O)C(=O)OCc2c1cc1n(c2=O)Cc2cc3c(CN(C)C)c(O)ccc3nc2-1 + NC1CCC(NC2CC2c2ccccc2)CC1 : 95.3

viability, T/C reading for CC(C)CC(NC(=O)C(Cc1ccccc1)NC(=O)c1cnccn1)B(O)O (stereo not drawn) + NC1CC1c1ccc(-c2cccc(O)c2)cc1 : 3.39

viability, T/C reading for CC(C)CC(NC(=O)CNC(=O)c1cc(Cl)ccc1Cl)B1OC(=O)CC(CC(=O)O)(C(=O)O)O1 (stereo not drawn) + NC1CC1c1ccc(-c2cccc(O)c2)cc1 : 109

* * *

Tested on: NCI-H196 complex spheroid viability
Protocol summary: Anticancer human tumor NCI-H196 cell line growth inhibition [LSD1];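 further: spheroids exposed to agents for 7 days before readout; 100% = DMSO vehicle control viability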
Reported conditions: second compound 1 µM; first compound 0.001 µM; active compounds read low
In this section, each of the molecules is paired with its reported viability, T/C.
Respond numerically; units are % and should not be typed.

Previously resolved entries follow.
>>> print(df.to_string())
                                   molecule                                  tgt  unit_string  observed_measurement
0  CC(C)CC(NC(=O)C(Cc1ccccc1)NC(=O)c1cnccn1)B(O)O (stereo not drawn) + NC1CCC(NC2CC2c2ccccc2)CC1  NCI-H196 complex spheroid viability            %                  6.67
1  Cn1ncnc1C1c2n[nH]c(=O)c3cc(F)cc(c23)NC1c1ccc(F)cc1 (stereo not drawn) + NC1CC1c1ccc(-c2cccc(O)c2)cc1  NCI-H196 complex spheroid viability            %                  98.9
2  CC(C)CC(NC(=O)CNC(=O)c1cc(Cl)ccc1Cl)B1OC(=O)CC(CC(=O)O)(C(=O)O)O1 (stereo not drawn) + NC1CCC(NC2CC2c2ccccc2)CC1  NCI-H196 complex spheroid viability            %                   105
3  CC(C)CC(NC(=O)CNC(=O)c1cc(Cl)ccc1Cl)B1OC(=O)CC(CC(=O)O)(C(=O)O)O1 (stereo not drawn) + NC1CC1c1ccc(-c2cccc(O)c2)cc1  NCI-H196 complex spheroid viability            %                   106
4  Cn1ncnc1C1c2n[nH]c(=O)c3cc(F)cc(c23)NC1c1ccc(F)cc1 (stereo not drawn) + NC1CCC(NC2CC2c2ccccc2)CC1  NCI-H196 complex spheroid viability            %                  98.4

Recorded viability, T/C for CC[C@@]1(O)C(=O)OCc2c1cc1n(c2=O)Cc2cc3c(CN(C)C)c(O)ccc3nc2-1 + NC1CC1c1ccc(-c2cccc(O)c2)cc1 on NCI-H196 complex spheroid viability was 93.8

Recorded viability, T/C for CC[C@@]1(O)C(=O)OCc2c1cc1n(c2=O)Cc2cc3c(CN(C)C)c(O)ccc3nc2-1 + NC1CCC(NC2CC2c2ccccc2)CC1 on NCI-H196 complex spheroid viability was 105

Recorded viability, T/C for CC(C)CC(NC(=O)C(Cc1ccccc1)NC(=O)c1cnccn1)B(O)O (stereo not drawn) + NC1CC1c1ccc(-c2cccc(O)c2)cc1 on NCI-H196 complex spheroid viability was 4.41
